system: KG-1; test: cells; format: functional, cell-based; settings: Homo sapiens;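 also: growth inhibition of KG-1 cells, read out by a cell viability assay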
Description: SANGER: Inhibition of human KG-1 cell growth in a cell viability assay.
assay_endpoint: IC50

• CN(C)C/C=C/C(=O)Nc1cc2c(Nc3ccc(F)c(Cl)c3)ncnc2cc1O[C@H]1CCOC1 = > 500 nM
• CC(=O)O[C@@]12CO[C@@H]1C[C@H](O)[C@@]1(C)C(=O)[C@H](O)C3=C(C)[C@@H](OC(=O)[C@H](O)[C@@H](NC(=O)OC(C)(C)C)c4ccccc4)C[C@@](O)([C@@H](OC(=O)c4ccccc4)[C@H]21)C3(C)C = > 10 nM
• COc1cc(F)c(F)c(Nc2ccc(I)cc2F)c1NS(=O)(=O)C1(CC(O)CO)CC1 (stereo not drawn) = > 5000 nM
• CS(=O)(=O)CCNCc1ccc(-c2ccc3ncnc(Nc4ccc(OCc5cccc(F)c5)c(Cl)c4)c3c2)o1 = > 2000 nM
• COc1ccc(-c2ccc3c(N4CCOC[C@@H]4C)nc(N4CCOC[C@@H]4C)nc3n2)cc1CO = 569 nM
• CN(Cc1cnc2nc(N)nc(N)c2n1)c1ccc(C(=O)N[C@@H](CCC(=O)O)C(=O)O)cc1 [METHOTREXATE] = > 200 nM
• O=C(NOCC1CC1)c1ccc(F)c(F)c1Nc1ccc(I)cc1Cl = 307 nM
• C[C@]1(O)C[C@@H](c2nc(-c3ccc4ccc(-c5ccccc5)nc4c3)c3c(N)nccn32)C1 = > 2560 nM
• C=CCc1cccc(/C=N/NC(=O)CN2CCN(Cc3ccccc3)CC2)c1O = > 2560 nM
• CO[C@H]1C[C@@H]2CC[C@@H](C)[C@@](O)(O2)C(=O)C(=O)N2CCCC[C@H]2C(=O)O[C@H]([C@H](C)C[C@@H]2CC[C@@H](O)[C@H](OC)C2)CC(=O)[C@H](C)/C=C(\C)[C@@H](O)[C@@H](OC)C(=O)[C@H](C)C[C@H](C)/C=C/C=C/C=C/1C = > 100 nM
• CC(=O)O[C@@H]1[C@@H](OC(C)=O)[C@@H](O)[C@H](Oc2c(-c3ccc(O)cc3)oc3cc(O)cc(O)c3c2=O)O[C@H]1C = > 10000 nM
• O=C1N=C(NCc2cccs2)S/C1=C\c1ccc2ncccc2c1 = > 5000 nM
• Cn1cc(C2=C(c3ccc(Cl)cc3Cl)C(=O)NC2=O)c2ccccc21 = > 10000 nM

----------
test system: MDA-MB-361; test: cells; assay type: functional, cell-based, Homo sapiens; conditions: Homo sapiens, MDA-MB-361
assay_endpoint: IC50

• O=C(NOCC1CC1)c1ccc(F)c(F)c1Nc1ccc(I)cc1Cl = > 10 µM
• CCOc1nc(NC(=O)Cc2cc(OC)ccc2OC)cc(N)c1C#N = > 10 µM
• CC(=O)O[C@@H]1[C@@H](OC(C)=O)[C@@H](O)[C@H](Oc2c(-c3ccc(O)cc3)oc3cc(O)cc(O)c3c2=O)O[C@H]1C = > 10 µM
• COc1ccc(-c2ccc3c(N4CCOC[C@@H]4C)nc(N4CCOC[C@@H]4C)nc3n2)cc1CO = 0.509 µM
• Cc1ccc(Nc2nccc(N(C)c3ccc4c(C)n(C)nc4c3)n2)cc1S(N)(=O)=O = > 8 µM
• C[C@]1(O)C[C@@H](c2nc(-c3ccc4ccc(-c5ccccc5)nc4c3)c3c(N)nccn32)C1 = > 2.56 µM
• Cn1cc(C2=C(c3ccc(Cl)cc3Cl)C(=O)NC2=O)c2ccccc21 = > 10 µM
• CN(c1ncccc1CNc1nc(Nc2ccc3c(c2)CC(=O)N3)ncc1C(F)(F)F)S(C)(=O)=O = > 2.56 µM
• COc1ccc(C2=N[C@@H](c3ccc(Cl)cc3)[C@@H](c3ccc(Cl)cc3)N2C(=O)N2CCNC(=O)C2)c(OC(C)C)c1 = > 8 µM
• COc1cc([C@@H]2c3cc4c(cc3[C@@H](O[C@@H]3O[C@@H]5CO[C@@H](C)O[C@H]5[C@H](O)[C@H]3O)[C@H]3COC(=O)[C@H]23)OCO4)cc(OC)c1O [ETOPOSIDE] = > 16 µM

----------
Measured pIC50 values are reported for all entries that follow.
tested on: no-10; assay: cells; type: functional, cell-based, Homo sapiens; conditions: Homo sapiens;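 also: growth inhibition of no-10 cells, read out with a cell viability assay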
Description: SANGER: Inhibition of human no-10 cell growth in a cell viability assay.
pIC50: −log10 of the molar value.
assay_endpoint: pIC50

* CNC(=O)c1cc(Oc2ccc(NC(=O)Nc3ccc(Cl)c(C(F)(F)F)c3)cc2)ccn1 | 5.79
* CN1CCN(CCOc2cc(OC3CCOCC3)c3c(Nc4c(Cl)ccc5c4OCO5)ncnc3c2)CC1 | < 5.70
* O=c1cc(-c2cccc3c2Sc2ccccc2S3)oc(N2CCOCC2)c1 | < 5.00
* CC(=O)O[C@@H]1[C@@H](OC(C)=O)[C@@H](O)[C@H](Oc2c(-c3ccc(O)cc3)oc3cc(O)cc(O)c3c2=O)O[C@H]1C | < 5.00
* CC1=C2C[C@H]3[C@@H](CC=C4C[C@@H](O)CC[C@@]43C)[C@@H]2CC[C@]12O[C@@H]1C[C@H](C)CN[C@H]1[C@H]2C | 5.00
* CS(=O)(=O)CCNCc1ccc(-c2ccc3ncnc(Nc4ccc(OCc5cccc(F)c5)c(Cl)c4)c3c2)o1 | < 5.70
* CC(=O)O[C@@]12CO[C@@H]1C[C@H](O)[C@@]1(C)C(=O)[C@H](O)C3=C(C)[C@@H](OC(=O)[C@H](O)[C@@H](NC(=O)OC(C)(C)C)c4ccccc4)C[C@@](O)([C@@H](OC(=O)c4ccccc4)[C@H]21)C3(C)C | 8.10
* C=CCc1cccc(/C=N/NC(=O)CN2CCN(Cc3ccccc3)CC2)c1O | < 5.59

----------
tested on: C3A; assay: cells; format: functional, cell-based, Homo sapiens; conditions: c3a;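 also: growth inhibition of C3A human cells, quantified with a cell viability readout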
Description: SANGER: Inhibition of human C3A cell growth in a cell viability assay.
pIC50: −log10 of the molar value.
assay_endpoint: pIC50

• Cc1cc([C@@H](C)Nc2ccccc2C(=O)O)c2nc(N3CCOCC3)cc(=O)n2c1 = < 5.29

----------
test system: EFE-184; test: cells; type: functional, cell-based; settings: Homo sapiens
Description: SANGER: Inhibition of human EFE-184 cell growth in a cell viability assay.
pIC50: −log10 of the molar value.
assay_endpoint: pIC50

• COc1cc([C@@H]2c3cc4c(cc3[C@@H](O[C@@H]3O[C@@H]5CO[C@@H](C)O[C@H]5[C@H](O)[C@H]3O)[C@H]3COC(=O)[C@H]23)OCO4)cc(OC)c1O [ETOPOSIDE] = < 4.80

----------
system: LC-2-ad; test: cells; format: functional, cell-based, Homo sapiens; conditions: Homo sapiens, LC-2-ad
Description: SANGER: Inhibition of human LC-2-ad cell growth in a cell viability assay.
Measured IC50 values are reported for all entries that follow.
assay_endpoint: IC50 (nM)

* Cn1cncc1[C@@](N)(c1ccc(Cl)cc1)c1ccc2c(c1)c(-c1cccc(Cl)c1)cc(=O)n2C | 1490
* CCC(=O)N1CCN(c2ccc(-n3c(=O)ccc4cnc5ccc(-c6cnc7ccccc7c6)cc5c43)cc2C(F)(F)F)CC1 | 21.4
* C=CCc1cccc(/C=N/NC(=O)CN2CCN(Cc3ccccc3)CC2)c1O | 898

----------
Measured IC50 values are reported for all entries that follow.
tested on: TYK-nu; experiment: cells; format: functional, cell-based, Homo sapiens; details: Homo sapiens, TYK-nu
Description: SANGER: Inhibition of human TYK-nu cell growth in a cell viability assay.
assay_endpoint: IC50 (nM)

- Cc1cnc(-c2cnc(NCCNc3ccc(C#N)cn3)nc2-c2ccc(Cl)cc2Cl)[nH]1: 1080
- Nc1ccn([C@@H]2O[C@H](CO)[C@@H](O)[C@@H]2O)c(=O)n1: 661

----------
system: NB12; assay: cells; format: functional, cell-based, Homo sapiens; conditions: Homo sapiens, NB12
Description: SANGER: Inhibition of human NB12 cell growth in a cell viability assay.
assay_endpoint: IC50

• CN(c1ncccc1CNc1nc(Nc2ccc3c(c2)CC(=O)N3)ncc1C(F)(F)F)S(C)(=O)=O [PF-00562271] = > 2560 nM
• C[C@]1(O)C[C@@H](c2nc(-c3ccc4ccc(-c5ccccc5)nc4c3)c3c(N)nccn32)C1 [LINSITINIB] = > 2560 nM
• CS(=O)(=O)CCNCc1ccc(-c2ccc3ncnc(Nc4ccc(OCc5cccc(F)c5)c(Cl)c4)c3c2)o1 [LAPATINIB] = > 2000 nM
• COc1cc([C@@H]2c3cc4c(cc3[C@@H](O[C@@H]3O[C@@H]5CO[C@@H](C)O[C@H]5[C@H](O)[C@H]3O)[C@H]3COC(=O)[C@H]23)OCO4)cc(OC)c1O [ETOPOSIDE] = 1080 nM
• O=C(c1cc(Cc2n[nH]c(=O)c3ccccc23)ccc1F)N1CCN(C(=O)C2CC2)CC1 [OLAPARIB] = > 5000 nM
• CN(C)C/C=C/C(=O)Nc1cc2c(Nc3ccc(F)c(Cl)c3)ncnc2cc1O[C@H]1CCOC1 [AFATINIB] = > 500 nM
• CC(=O)O[C@@]12CO[C@@H]1C[C@H](O)[C@@]1(C)C(=O)[C@H](O)C3=C(C)[C@@H](OC(=O)[C@H](O)[C@@H](NC(=O)OC(C)(C)C)c4ccccc4)C[C@@](O)([C@@H](OC(=O)c4ccccc4)[C@H]21)C3(C)C [DOCETAXEL] = > 10 nM
• O=C1N=C(NCc2cccs2)S/C1=C\c1ccc2ncccc2c1 = > 5000 nM
• CNC(=O)c1cc(Oc2ccc(NC(=O)Nc3ccc(Cl)c(C(F)(F)F)c3)cc2)ccn1 [SORAFENIB] = > 4000 nM
